ASSAY INFO: Determination of Bioavailability, stomach (oral gavage) v. intraduodenal administration
Type: in vivo, Rats
STATED CONDITIONS: rat, plasma, po, 20 mg/kg, 20 mg/kg in 15% cyclodextrin, Experiment 1
MEASURED PROPERTY: AUC (ng·h/mL)
One number for each entry, in ng·h/mL.

For the molecule CC(C)(C=C(C#N)C(=O)N1CCC[C@H]1Cn1nc(-c2ccc(Oc3ccccc3)cc2F)c2c(N)ncnc21)N1CCOCC1 [Cpd 95B] , report AUC.
154

// data source = patent US20160045503A1
